Source: patent US9988381B2

Can you tell me inhibition at 0.2 µM for the items I'm about to list?
- Tested on: EBC-1 cell
- assay_comment: Test III: growth inhibition of non-small cell carcinoma EBC-1 cell (SRB)
- Assay type: cell-based
- condition_parameters: Homo sapiens, EBC-1, 72 h, read-out: Cell proliferation inhibition rate at 200 nM (%)
Answers are plain numbers, in %.

Solved cases (5 shown):
> print(dat)
                                   compound  number
1  Cn1cc(-c2ccc3ncc(S(=O)(=O)n4ncc5ncc(-c6cnn(C7CCNCC7)c6)cc54)n3c2)cn1 [Example 140]    91.4
2  Cn1cc(-c2ccc3ncc(S(=O)(=O)n4ncc5ncc(-c6cnn(C7CCN(C(=O)OC(C)(C)C)CC7)c6)cc54)n3c2)cn1 [Example 141]    92.6
3  COc1ccc2ncc(S(=O)(=O)n3ncc4ncc(-c5ccc(N6CCOCC6)cc5)cc43)n2c1 [Example 124]    43.1
4  Cn1cc(-c2ccc3ncc(S(=O)(=O)n4ncc5ncc(-c6cnn(C7CCN(C8CCCC8)CC7)c6)cc54)n3c2)cn1 [Example 136]    91.4
5  Cn1cc(-c2ccc3ncc(S(=O)(=O)n4ncc5ncc(NC(=O)c6ccccc6)cc54)n3c2)cn1 [Example 133]    86.4

// input: 2 compounds below; output: inhibition at 0.2 µM for each
1. CC(C)N1CC=C(c2cnc3cnn(S(=O)(=O)c4cnc5ccc(-c6cnn(C)c6)cn45)c3c2)CC1 [Example 137]
2. CC(C)c1c(-c2cnn(C)c2)cnc2cnn(S(=O)(=O)c3cnc4ccc(-c5cnn(C)c5)cn34)c12 [Example 103]

Marked response:
1. 73
2. 80.9

* * *

- test_target: c-Met kinase domain recombinant protein (Homo sapiens)
- Construct: 50 μL diluted solution of c-Met kinase domain recombinant protein in reaction buffer was added to initiate the reaction
- Sequence (P08581 1078-1345 limits assumed): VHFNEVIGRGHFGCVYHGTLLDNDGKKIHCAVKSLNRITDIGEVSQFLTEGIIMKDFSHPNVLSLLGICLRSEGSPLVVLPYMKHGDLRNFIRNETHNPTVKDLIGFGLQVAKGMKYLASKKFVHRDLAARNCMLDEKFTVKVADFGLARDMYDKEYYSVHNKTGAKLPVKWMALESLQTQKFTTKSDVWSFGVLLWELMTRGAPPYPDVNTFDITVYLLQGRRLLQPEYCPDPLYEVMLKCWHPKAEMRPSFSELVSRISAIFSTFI
- assay_comment: biochemical
Can you tell me log10 IC50 for the items I'm about to list?
Kindly note that the scale is log10 and the underlying IC50 is in nM.

Solved cases (6 shown):
> print(dat)
                                   compound  measured.property  number
1  CN1CCN(C(=O)c2ccc(-c3cnc4cnn(S(=O)(=O)c5cnc6ccc(-c7cnn(C)c7)cn56)c4c3)cc2)CC1 [Example 142]         log10 IC50   -0.30
2  O=S(=O)(c1cnc2ccccn12)n1ncc2ncc(-c3ccc(N4CCOCC4)cc3)cc21 [Example 39]         log10 IC50    0.41
3  Cn1cc(-c2ccc3ncc(S(=O)(=O)n4ncc5ncc(-c6cnn(C7CCN(C(=O)OC(C)(C)C)CC7)c6)cc54)n3c2)cn1 [Example 141]         log10 IC50   -0.52
4  Cn1cc(-c2ccc3ncc(S(=O)(=O)n4ncc5ncc(C6=CCN(C7CCCC7)CC6)cc54)n3c2)cn1 [Example 135]         log10 IC50    0.41
5  Cn1cc(-c2cnc3cnn(S(=O)(=O)c4c(Cl)nc5sccn45)c3c2)cn1 [Compound 18]         log10 IC50    0.62
6  COc1ccc(-c2ccc3ncc(S(=O)(=O)n4ncc5ncc(-c6cnn(C)c6)cc54)n3c2)cc1OC [Example 96]         log10 IC50   -0.15

// input: 5 compounds below; output: log10 IC50 for each
1. Cn1cc(-c2cnc3cnn(S(=O)(=O)c4cccc5nonc45)c3c2)cn1 [Compound 20]
2. Cn1cc(-c2ccc3ncc(S(=O)(=O)n4ncc5ncc(C6=CCNCC6)cc54)n3c2)cn1 [Example 139]
3. COc1ccc2ncc(S(=O)(=O)n3ncc4ncc(-c5ccc(N6CCOCC6)cc5)cc43)n2c1 [Example 124]
4. O=[N+]([O-])c1ccc2ncc(S(=O)(=O)n3ncc4ncc(-c5cc(F)c(F)c(F)c5)cc43)n2c1 [Example 116]
5. CCN1CCC(n2cc(-c3cnc4cnn(S(=O)(=O)c5cnc6ccc(-c7cnn(C)c7)cn56)c4c3)cn2)CC1 [Example 138]

Marked response:
[2.50, 0.00, 0.67, 0.56, -0.22]
